Literature roundup of O-acyltransferase (Oryctolagus cuniculus, UniProt G1SFD9) data, read-out pIC50.
Answers are plain numbers, as −log10 of the molar value.

Example entries and their recorded answers appear below.
1. Cc1cc(C)c(NC(=O)C(C)(C)CCCCCOc2ccc(N)cc2)c2c1CC(C)(C)O2 | 6.34
2. Cc1ccc(C)c(OCCCC(C)(C)C(=O)Nc2c(F)cc(F)cc2F)c1 | 6.10
3. Cc1ccc(C)c(OCCCC(C)(C)C(=O)Nc2cccc(C3=NCCO3)c2C)c1 | 5.00

Each of the following entries comes with a recorded value; kindly state pIC50 for each.
1. CCCCCCCN(CC1(c2ccccc2)CCCC1)C(=O)Nc1c(C)cccc1C
2. CC(C)c1cccc(C(C)C)c1NC(=O)CNC(c1ccccc1)c1ccccc1
3. CCCCCCOc1ccc(CCCC(C)(C)C(=O)Nc2c(C)cc(C)c3c2OC(C)(C)C3)cc1
4. COc1ccc(CN[C@H](CNC(=O)Nc2c(C(C)C)cccc2C(C)C)C(C)C)cc1

Return:
1: 7.21; 2: 7.26; 3: 7.47; 4: 7.07

Enquiry: State recorded pIC50 with O-acyltransferase (Oryctolagus cuniculus, UniProt G1SFD9), entry Cc1cc(C)c(NC(=O)N(Cc2ccccc2)CC2(c3ccccc3)CCCC2)c(C)c1 , no comment.
Return: 7.10

* * *

Literature roundup of O-acyltransferase (Oryctolagus cuniculus, UniProt G1SFD9) data, read-out log10 IC50.
Hi team, quick reminder: these entries are log10 of IC50 (nM).

Example entries and their recorded answers appear below.
1. Cc1ccc(C)c(OCCCC(C)(C)C(=O)Nc2cccc(C=CC3=NC(C)(C)CO3)c2)c1 | 3.97
2. CCCCCCCCCCCCn1cnc(NC(=O)Nc2c(C(C)C)cccc2C(C)C)n1 | 3.18
3. CCCCCCCCn1nnc(CS(=O)(=O)Nc2c(C(C)C)cccc2C(C)C)n1 | 2.88
4. Cc1cc(C)c(NC(=O)C(C)(C)CCCCCOCCc2ccccc2)c2c1CC(C)(C)O2 | 2.00
5. CCCCCCCC/C=C\CCCCCCCC(=O)Nc1c(OCC)ncnc1OCC | 2.72
6. CC(C)c1cccc(C(C)C)c1NC(=O)NC(c1ccccc1)c1ccccc1 | 1.65
7. Cc1ccc(C)c(OCCCC(C)(C)C(=O)Nc2cccc(-c3nnc(C)o3)c2)c1 | 4.32
8. CCCCCCCCCCCn1ncnc1NC(=O)Nc1c(C(C)C)cccc1C(C)C | 2.15

Each of the following entries comes with a recorded value; kindly state log10 IC50 for each.
1. Cc1cccc(C)c1NC(=O)N(Cc1ccccc1)CC1(c2ccccc2)CCCC1
2. Cc1ccc(C)c(OCCCC(C)(C)C(=O)Nc2ccc(C)cc2OC(C)C)c1
3. CCCCCCCCCCCCCc1nc(NC(=O)Nc2c(C(C)C)cccc2C(C)C)no1
4. CCCCCCCCCCCCc1cc(NC(=O)Nc2c(C(C)C)cccc2C(C)C)n(-c2ccccn2)n1
5. COC(=O)C(C)(C)CCCOc1cc(C)c(NS(C)(=O)=O)cc1C
6. CCCCCCCCC(c1ccccc1)S(=O)(=O)NC(=O)Nc1c(C(C)C)cccc1C(C)C (stereo not drawn)
7. Cc1ccc2c(c1NC(=O)C(C)(C)CCCCOc1ccc(C(C)(C)C)cc1)OC(C)(C)C2

Return:
[1.77, 3.90, 0.85, 2.00, 4.84, 3.96, 2.53]

* * *

Literature roundup of UniProtKB G1SFD9 data, read-out pIC50.
Numbers only, as −log10 of the molar value.

1) CCCc1ccc(CCCC(C)(C)C(=O)Nc2c(C)cc(C)c3c2OC(C)(C)C3)cc1 | 7.18

Each of the following entries comes with a recorded value; kindly state pIC50 for each.
1. Cc1cc(C)c(NC(=O)C(C)(C)CCCCCCN(C)Cc2ccc(Cl)cc2)c2c1CC(C)(C)O2
2. CCc1cccc(CC)c1NC(=O)NCC(c1ccccc1)c1ccccc1
3. COc1ccc(NC(=O)C(C)(C)CCCOc2cc(C)ccc2C)cc1C1=NC(C)(C)CO1
4. Cc1cc(C)c(NC(=O)C(C)(C)CCCCN2CCN(Cc3ccccc3)CC2)c2c1CC(C)(C)O2
5. CCCCCNC(=O)Nc1c(OCCCN2CCN(c3ccccc3)CC2)cccc1N(C)C

Return:
1: 6.92; 2: 7.04; 3: 4.72; 4: 6.48; 5: 7.77

Each of the following entries comes with a recorded value; kindly state pIC50 for each.
1. COc1ccccc1NC(=O)C(C)(C)CCCOc1cc(C)ccc1C
2. CCCCCCOc1ccccc1NC(=O)C(C)(C)CCCOc1cc(C)ccc1C
3. CCCCCCCCCCCCC(C)C(=O)Nc1c(OCC)ncnc1OCC (stereo not drawn)
4. CC(C)c1cccc(C(C)C)c1NC(=O)NCC(c1ccccc1)c1ccccc1
5. COc1ccc(C2=NCCCO2)cc1NC(=O)C(C)(C)CCCOc1cc(C)ccc1C
6. Cc1cc(C)c(NC(=O)C(C)(C)CCCCCCN2CCN(Cc3ccccc3)CC2)c2c1CC(C)(C)O2
7. CC(C)c1cccc(C(C)C)c1NC(=O)[C@H](Cc1ccc(O)cc1)NC(=O)OC(C)(C)C

Return:
1: 4.85; 2: 5.00; 3: 6.30; 4: 7.62; 5: 4.74; 6: 6.46; 7: 5.98

Each of the following entries comes with a recorded value; kindly state pIC50 for each.
1. CCc1cccc(CC)c1NC(=O)NC(c1ccccc1)c1ccccc1
2. Cc1ccc(C)c(OCCCC(C)(C)C(=O)Nc2ccc(C)c(CC3=NC(C)(C)CO3)c2)c1

Return:
7.10
6.00

* * *

Literature roundup of O-acyltransferase (Oryctolagus cuniculus, UniProt G1SFD9) data, read-out pIC50.
Answers are plain numbers, as −log10 of the molar value.

Example entries and their recorded answers appear below.
1. CCCCCCC1CCC(C(=O)Nc2c(C(C)C)cccc2C(C)C)C(=O)O1 (stereo not drawn) | 6.39
2. COc1ccc(NC(=O)C(C)(C)CCCOc2cc(C)ccc2C)cc1CCC1=NC(C)(C)CO1 | 5.43
3. CCCCCCCC/C=C\CCCCCCCCC(C)(C)C(=O)Nc1c(C)cccc1OC | 6.17
4. CCCCCCCCCCCCCCCC(=O)Nc1c(C)cc(C)c2c1OC(C)(C)C2 | 6.59

Each of the following entries comes with a recorded value; kindly state pIC50 for each.
1. CCCCCCCCn1nnc(NC(=O)Nc2c(C(C)C)cccc2C(C)C)n1
2. CCCCCCCC/C=C\CCCCCCCCC(C)(C)C(=O)Nc1c(OC)ncnc1OC
3. CCCCCCCCCCCCCCCCS(=O)(=O)Nc1cc(C)c(OCCCC(C)(C)C(=O)OC)cc1C
4. CC(C)c1cccc(C(C)C)c1NC(=O)N(Cc1ccccc1)CC1(c2ccccc2)CCCC1
5. CCCCCCCCCCCCCC(c1ccccc1)S(=O)(=O)NC(=O)Nc1c(C(C)C)cccc1C(C)C (stereo not drawn)
6. Cc1cc(C)c(NC(=O)C(C)(C)CCCCOCCCC(C)C)c2c1CC(C)(C)O2
7. CCCCCCCCCCCCn1nnc(CS(=O)(=O)Nc2c(OC)cc(OC)cc2OC)n1

Return:
[7.23, 6.11, 4.13, 6.77, 5.70, 6.72, 6.74]

Each of the following entries comes with a recorded value; kindly state pIC50 for each.
1. CC(C)c1cccc(C(C)C)c1NC(=O)NOC(c1ccccc1)(c1ccccc1)c1ccccc1
2. Cc1cc(C)c(NC(=O)C(C)(C)CCCCCCOc2ccc(N(C)C)cc2)c2c1CC(C)(C)O2
3. CCCCCCCCCCC(C)(C)C(=O)Nc1c(OC)ncnc1OC
4. Cc1ccc(C)c(OCCCC(C)(C)C(=O)Nc2cc(CC3=NC(C)(C)CO3)ccc2C)c1
5. CCCCCCCCCCCCCCC(C)C(=O)NC(C)c1ccccn1 (stereo not drawn)

Return:
1. 7.28
2. 6.89
3. 6.64
4. 6.10
5. 5.85

* * *

Literature roundup of UniProtKB G1SFD9 data, read-out pIC50.
Give bare numbers, as −log10 of the molar value.

1. CCCCCCCN(CC1(c2ccccc2)CCCC1)C(=O)Nc1c(C(C)C)cccc1C(C)C | 6.96
2. CCCCCCN(CCCCCC)Cc1cc(NC(=O)Nc2c(C(C)C)cccc2C(C)C)no1 | 5.57
3. COC(=O)C(C)(C)CCCOc1cc(C)c(NC(=S)Nc2ccccc2)cc1C | 4.55
4. CCCCCCCCCCCCc1nnc(NC(=O)Nc2c(C(C)C)cccc2C(C)C)s1 | 7.47
5. CCCCCCCCCCCCSc1nnc(NC(=O)Nc2c(C(C)C)cccc2C(C)C)n1C(C)=O | 6.22
6. CC(C)c1cccc(C(C)C)c1NC(=O)CC(=O)CCCCCCCCCCCOC1CCCCO1 (stereo not shown) | 7.24
7. CCCCCCCCCCCCNC(=O)Nc1c(C)ccc2c1OC(C)(C)C2 | 6.66
8. CCCCCCCCCCCCCC(C)S(=O)(=O)NC(=O)Nc1c(C(C)C)cccc1C(C)C (stereo not shown) | 5.99

Each of the following entries comes with a recorded value; kindly state pIC50 for each.
1. COc1cc(OC)c(C2=NC(C)(C)CO2)cc1NC(=O)C(C)(C)CCCOc1cc(C)ccc1C
2. Cc1ccc(C)c(OCCCC(C)(C)C(=O)Nc2cccc(C3=NCCCO3)c2)c1
3. CCCCNC(=O)Nc1c(C)cccc1OCCCn1cnc(-c2ccccc2)c1
4. COCCCCCCC(C)(C)C(=O)Nc1c(C)cc(C)c2c1OC(C)(C)C2
5. Cc1ccc(NC(=O)C(C)(C)CCCOc2cc(C)ccc2C)c(C)c1

Return:
[5.05, 4.70, 7.32, 6.48, 5.10]

Each of the following entries comes with a recorded value; kindly state pIC50 for each.
1. CCCCCCCCCCCCS(=O)(=O)NC(=O)Nc1c(C(C)C)cccc1C(C)C
2. CCCCCCCCCCCCC(C)C(=O)Nc1c(OC)ncnc1OC (stereo not shown)
3. CCCCCCCCC(C)(C)C(=O)Nc1c(C)cc(C)c2c1OC(C)(C)C2
4. CCCCCCCCCCCCC(CC)C(=O)NC(C)c1ccccn1 (stereo not shown)
5. CC(C)c1cccc(C(C)C)c1NC(=O)N(Cc1ccccc1)CC(c1ccccc1)c1ccccc1
6. CCCCCCCCCCC(CC)C(=O)NC(C)c1ccccn1 (stereo not shown)

Return:
5.92
6.40
7.14
6.15
5.89
5.80
